test: Inhibition of trypsin-like activity of rabbit reticulocyte 20S proteasome; set-up: species or system Oryctolagus cuniculus
Residues, ends and D or L forms follow the SMILES beside them. *: point of attachment. Cbz = O=C(OCc1ccccc1)*; NHBn = c1ccc(CN*)cc1; Bn = c1ccc(C*)cc1
# Ki per record follows

compound	Ki
C[C@H](NC(=O)[C@@H](N)Cc1ccc(OCc2ccccc2)cc1)C(=O)N[C@@H](Cc1c[nH]c2ccccc12)C(=O)NCc1ccccc1 (H-Tyr(Bn)-Ala-Trp-NHBn)	> 100 µM
CNC(=O)[C@H](Cc1c[nH]c2c(Br)cccc12)NC(=O)[C@H](C)NC(=O)[C@H](Cc1ccc(OCc2ccccc2)c(I)c1)NC(=O)OC(C)(C)C	> 100 µM
COC(=O)[C@H](Cc1c[nH]c2c(Br)cccc12)NC(=O)[C@H](CC(N)=O)NC(=O)[C@H](Cc1ccc(OCc2ccccc2)c(I)c1)NC(=O)OC(C)(C)C	> 100 µM
COC(=O)[C@H](Cc1c[nH]c2c(Br)cccc12)NC(=O)[C@H](C)NC(=O)[C@H](Cc1ccc(OCc2ccccc2)c(I)c1)NC(=O)OC(C)(C)C	> 100 µM
COC(=O)[C@@H]1Cc2c[nH]c3c(cccc23)-c2ccc(cc2OC)C[C@H](NC(=O)OC(C)(C)C)C(=O)N[C@@H](C)C(=O)N1	> 100 µM
CNC(=O)[C@@H](Cc1c[nH]c2c(-c3ccc(C[C@H](NC(=O)OC(C)(C)C)C(=O)N[C@H](C)C(=O)OC)cc3OCc3ccccc3)cccc12)NC(=O)OCc1ccccc1	21.5 µM

Input: Report Ki for CC(C)C[C@@H](C=O)NC(=O)[C@H](CC(C)C)NC(=O)[C@H](CC(C)C)NC(=O)OCc1ccccc1 [MG-132] (Cbz-Leu-Leu-Leu-aldehyde) please.
Output: 4.5 µM

Input: Return reported Ki; argument: CCOC(=O)[C@H](Cc1c[nH]c2c(Br)cccc12)NC(=O)[C@H](CC(C)C)NC(=O)[C@H](Cc1ccc(OCc2ccccc2)c(I)c1)NC(=O)OC(C)(C)C
Output: > 100 µM

###

assay: Inhibition of trypsin-like activity of rabbit reticulocyte 20S proteasome; design: species or system Oryctolagus cuniculus
pKi: −log10 of the molar value.
readout.name: pKi

smiles.representation	pKi
COC(=O)[C@H](Cc1c[nH]c2c(Br)cccc12)NC(=O)[C@H](C)NC(=O)[C@H](Cc1ccc(OC)c(I)c1)NC(=O)OC(C)(C)C	< 4.00
C[C@H](NC(=O)[C@H](Cc1ccc(OCc2ccccc2)cc1)NC(=O)OC(C)(C)C)C(=O)N[C@@H](Cc1c[nH]c2ccccc12)C(=O)Nc1ccc(O)cc1	< 4.00

Now examine the next entry.
Input: Query (compound): CC(C)(C)OC(=O)NCCCC[C@H](NC(=O)[C@H](Cc1ccc(OCc2ccccc2)cc1)NC(=O)OC(C)(C)C)C(=O)N[C@@H](Cc1c[nH]c2ccccc12)C(=O)Nc1ccc(O)cc1 ; field requested: pKi
Output: < 4.00
